- tgt: TRPM4 (Homo sapiens)
- Sequence (Q8TD43 whole entry): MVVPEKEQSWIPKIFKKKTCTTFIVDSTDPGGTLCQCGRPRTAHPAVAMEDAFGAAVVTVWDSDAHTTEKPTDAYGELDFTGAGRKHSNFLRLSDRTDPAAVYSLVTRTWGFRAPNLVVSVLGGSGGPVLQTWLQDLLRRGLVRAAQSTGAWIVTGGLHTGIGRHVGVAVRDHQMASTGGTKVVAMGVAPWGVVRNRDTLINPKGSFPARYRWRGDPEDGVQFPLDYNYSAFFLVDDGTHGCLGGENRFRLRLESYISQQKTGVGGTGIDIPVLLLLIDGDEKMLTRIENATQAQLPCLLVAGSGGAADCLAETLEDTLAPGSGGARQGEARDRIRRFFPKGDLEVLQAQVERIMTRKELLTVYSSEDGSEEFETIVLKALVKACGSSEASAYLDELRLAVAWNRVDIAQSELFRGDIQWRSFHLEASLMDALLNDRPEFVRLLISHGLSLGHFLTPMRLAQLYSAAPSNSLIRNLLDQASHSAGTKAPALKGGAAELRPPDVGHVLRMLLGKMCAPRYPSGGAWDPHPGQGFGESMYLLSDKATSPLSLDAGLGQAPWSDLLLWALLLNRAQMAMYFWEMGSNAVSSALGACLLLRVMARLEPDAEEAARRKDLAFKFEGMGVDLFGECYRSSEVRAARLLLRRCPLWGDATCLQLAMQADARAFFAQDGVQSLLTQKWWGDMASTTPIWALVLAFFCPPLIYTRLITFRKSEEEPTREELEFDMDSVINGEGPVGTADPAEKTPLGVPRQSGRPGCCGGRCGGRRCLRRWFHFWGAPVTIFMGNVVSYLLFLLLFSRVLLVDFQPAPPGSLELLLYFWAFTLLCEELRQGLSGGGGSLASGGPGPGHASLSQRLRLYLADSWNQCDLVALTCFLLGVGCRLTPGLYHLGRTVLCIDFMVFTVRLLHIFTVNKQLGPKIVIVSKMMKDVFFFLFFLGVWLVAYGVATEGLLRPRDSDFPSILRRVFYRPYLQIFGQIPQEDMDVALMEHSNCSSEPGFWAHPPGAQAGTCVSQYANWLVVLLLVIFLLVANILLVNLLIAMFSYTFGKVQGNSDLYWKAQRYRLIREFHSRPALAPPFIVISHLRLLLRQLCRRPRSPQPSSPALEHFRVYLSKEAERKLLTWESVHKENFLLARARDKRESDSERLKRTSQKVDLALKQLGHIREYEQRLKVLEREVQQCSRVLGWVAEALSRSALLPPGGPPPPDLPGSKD
- method_description: whole-cell patch clamp of endogenous TRPM4 currents in HCT116 cells
property_measured: IC50 (nM)

# compound, tgt, readout_value
data = [
    ("Cc1cc(Cl)ccc1OC(C)C(=O)Nc1cc(Cl)ccc1C(=O)O (stereo not shown)", "TRPM4 (Homo sapiens)", 1840),
]
